Experimental Target: T1, cynomolgus HER3-ECD-His (cynomolgus monkey, UniProt G7PIG5 20-643)
T1 construct: extracellular domain; Bought protein (Sino Biological); also called Cyno HER3-ECD-His; Cyno HER3; not shown: His tag
T1 sequence (G7PIG5 entry or part of it): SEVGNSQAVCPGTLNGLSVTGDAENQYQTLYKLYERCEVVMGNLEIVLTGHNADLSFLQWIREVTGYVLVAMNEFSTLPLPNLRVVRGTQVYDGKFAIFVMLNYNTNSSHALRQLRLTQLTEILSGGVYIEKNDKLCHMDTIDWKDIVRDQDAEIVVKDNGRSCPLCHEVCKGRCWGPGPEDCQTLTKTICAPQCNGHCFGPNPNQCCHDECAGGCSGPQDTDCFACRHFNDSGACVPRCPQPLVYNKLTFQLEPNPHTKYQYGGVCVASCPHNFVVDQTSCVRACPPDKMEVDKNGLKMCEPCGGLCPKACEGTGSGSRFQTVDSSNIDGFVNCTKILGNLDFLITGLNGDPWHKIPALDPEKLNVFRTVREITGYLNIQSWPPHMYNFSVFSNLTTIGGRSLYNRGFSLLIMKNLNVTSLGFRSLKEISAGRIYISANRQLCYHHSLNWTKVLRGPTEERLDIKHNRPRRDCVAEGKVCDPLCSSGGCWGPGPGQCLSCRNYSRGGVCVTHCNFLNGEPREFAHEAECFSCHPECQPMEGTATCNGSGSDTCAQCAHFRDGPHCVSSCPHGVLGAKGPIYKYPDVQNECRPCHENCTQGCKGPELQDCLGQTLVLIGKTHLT
Protocol Summary: Octet (BLI)
Provide the reported koff of each item.

Recorded koff of cHE2-G1W (antibody, human IgG1, V domains shown, also called chimeric HE2 antibody; not shown: human IgG1 heavy chain constant region, GenBank AXN93653.1; human kappa light chain constant region, GenBank AWK57456.1) VH: EVKLQESGPGLVKPSQSLSLTCSVTGYSITSGYYWNWIRQFPGNKLEWMGYISYDGSNNYNPSLKNRISITRDTSKNQFFLKLNSVTTEDTATYYCARMDWDGDAMDYWGQGTSVTVSS VL: DIVLTQSPASLAVSLGQRATISCRASESVDNYGISLMHWYQQKPGQPPKLLIYRASNLESGIPARFSGSGSRTDFTLTINPVETDDVATYYCQQSNKDPPTFGAGTKLELKR , please. 0.00165 s⁻¹

Requested field: koff. Item: cHE1-G1W (antibody, human IgG1, V domains shown, also called chimeric HE1 antibody; not shown: human IgG1 heavy chain constant region, GenBank AXN93653.1; human kappa light chain constant region, GenBank AWK57456.1) VH: EVKLQESGPGLVKPSQSLSLTCSVTGYSITSGYYWNWIRQFPGNKLEWMGYISYDGSNNYNPSLKNRISITRDTSKNQFFLNLNSVTTEDTATYYCARVDWDGDAMDYWGQGTSVTVSS VL: DIVLTQSPASLAVSLGQRATISCRASESVDNYGIRLMHWYQQKSGQPPKLLIHRASNLESGIPARFSGSGSRTDFTLTINPVETDDVATYYCQQSNKDPFTFGSGTKLEIKR 0.0017 s⁻¹
